Attribute: Specific Activity of Monooxygenase Enzymes Against Various Ketone Substrates, sp. CHX chnB
Test system: Acidovorax sp. CHX chnB monooxygenase
Experiment: chnB monooxygenase activity assay, NADPH oxidation at 340 nm, purified over-expressed enzyme
Assay type: biochemical
Settings: 1.25 mM substrate, pH 7.5; ND = No Activity Detected
Source text: Following amplification, the chnB gene fragments were cloned into pTrcHis-TOPO TA vectors with either an N-terminal tail or C-terminal tail, as provided by the vector sequence (N-terminal tail for Brevibacterium sp. HCU, Rhodococcus sp. phi1, Rhodococcus sp. phi2, and Arthrobacter sp. BP2 monooxygenases; C-terminal tail for Acinetobacter sp. SE19 and Acidovorax sp. CHX monooxygenases). […]
property_label: Specific Activity of Monooxygenase Enzymes Against Various Ketone Substrates, sp. CHX chnB (µmol/min/mg)

>  <compound>
C[S+](C)[O-] [dimethyl sulfoxide]

>  <unit_abbreviation>
µmol/min/mg

>  <result_value>
0.358

$$$$
>  <compound>
O=C1CCCCC1c1ccccc1 (stereo not drawn)

>  <unit_abbreviation>
µmol/min/mg

>  <result_value>
0.192

$$$$
>  <compound>
O=C1CCCCCCCCCC1

>  <unit_abbreviation>
µmol/min/mg

>  <result_value>
0.058

$$$$
>  <compound>
O=C1CCCCCC1

>  <unit_abbreviation>
µmol/min/mg

>  <result_value>
0.608

$$$$
>  <compound>
CC1CCCCC1=O (stereo not drawn)

>  <unit_abbreviation>
µmol/min/mg

>  <result_value>
0.627

$$$$
>  <compound>
O=C1C=CCCC1

>  <unit_abbreviation>
µmol/min/mg

>  <result_value>
0.666

$$$$
